Measured ELISA data of individual entries
target: T1, CD81 (UniProt P60033 1-236, limits assumed)
T1 construct: whole, on cells; also called CD81 receptor
T1 sequence (looked up): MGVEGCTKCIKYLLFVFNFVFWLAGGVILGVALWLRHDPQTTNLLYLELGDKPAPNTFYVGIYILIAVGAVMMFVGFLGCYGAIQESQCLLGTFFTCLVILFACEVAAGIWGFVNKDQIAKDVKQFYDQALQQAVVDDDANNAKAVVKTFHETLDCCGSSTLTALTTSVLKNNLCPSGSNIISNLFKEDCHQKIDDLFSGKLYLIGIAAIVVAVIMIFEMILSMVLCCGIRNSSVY
test.summary: cell ELISA;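 further: antibody binding to HuH7 cells expressing CD81 versus a CD81-negative HuH7 control line, bound antibody detected by secondary reagent, absorbance at 450 nm with 620 nm reference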
measured.quantity: ELISA data

# binder, measured.quantity, readout.value
measured = [
    ("CD81K13 HC 5b-hVH_1_69 / LC 5b-hVK_1_39-GA (antibody, V domains shown, human constant region) VH: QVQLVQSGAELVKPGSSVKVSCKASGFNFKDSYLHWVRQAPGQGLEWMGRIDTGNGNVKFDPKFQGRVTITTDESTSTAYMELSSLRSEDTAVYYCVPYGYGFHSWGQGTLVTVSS VL: DIQMTQSPSSLSASVGDRVTITCRASENIYRTLAWYQQKPGKAPKLLIYGATTLADGVPSRFSGSGSGTDFTLTISSLQPEDFATYYCQHFWGTPWTFGQGTKVEIK", "ELISA data", 0.646),
    ("CD81K13 HC 05-hVH_1_69 / LC 04-hVK_1_9 (antibody, V domains shown, human constant region) VH: QVQLVQSGAEVKKPGSSVKVSCKASGFNFKDSYLHWVRQAPGQGLEWMGRIDTGNGNVKFDPKFQGRVTITTDESTSTAYMELSSLRSEDTAVYYCVPYGYGFHSWGQGTLVTVSS VL: DIQLTQSPSFLSASVGDRVTITCRASENIYRTLAWYQQKPGKAPKLLIYAATTLASGVPSRFSGSGSGTEFTLTISSLQPEDFGTYYCQHFWGTPWTFGQGTKVEIK", "ELISA data", 0.685),
    ("CD81K13 HC 02-hVH_1_3 / LC 5b-hVK_1_39-GA (antibody, V domains shown, human constant region) VH: QVQLVQSGAEVKKPGASVKVSCKASGYTFTDSYMHWVRQAPGQRLEWMGRIDTGNGNTKYSQKFQGRVTITTDTSASTAYMELSSLRSEDTAVYYCAPYGYGFHSWGQGTLVTVSS VL: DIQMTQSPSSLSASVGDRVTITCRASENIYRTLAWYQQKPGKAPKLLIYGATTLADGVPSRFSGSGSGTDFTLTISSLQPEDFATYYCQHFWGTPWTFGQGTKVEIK", "ELISA data", 0.247),
]
